Molecular target: 5-HT1A receptor (Rattus norvegicus, UniProt P19327)
Construct: Hippocampal homogenates (15 μg/mL) were added to each tube as the 5-HT1A receptor source; from tissue; host or cells: rat hippocampus (male Sprague-Dawley), membrane homogenate
Sequence (P19327 1-422): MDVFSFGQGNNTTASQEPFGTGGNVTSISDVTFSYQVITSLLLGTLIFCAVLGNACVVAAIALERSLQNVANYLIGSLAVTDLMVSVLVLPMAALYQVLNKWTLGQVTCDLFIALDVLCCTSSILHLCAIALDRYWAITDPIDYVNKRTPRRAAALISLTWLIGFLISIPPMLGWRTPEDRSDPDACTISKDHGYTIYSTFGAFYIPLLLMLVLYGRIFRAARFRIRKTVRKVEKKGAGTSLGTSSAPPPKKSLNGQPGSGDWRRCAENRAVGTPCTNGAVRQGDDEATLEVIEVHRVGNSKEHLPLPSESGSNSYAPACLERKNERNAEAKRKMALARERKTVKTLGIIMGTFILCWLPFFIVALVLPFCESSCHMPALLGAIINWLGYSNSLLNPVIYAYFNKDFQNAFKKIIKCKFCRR
Assay: Antagonist activity for the 5-HT1A receptor, [35S]GTPγS assay in hippocampal homogenates
Type: biochemical
Settings: antagonistic activity, 8-OH-DPAT 1.4 × 10^−7 M, mean ± SEM
Below, each entry is listed with its recorded EC50.
All answers are understood in nM, so give the number only.

Solved cases below.
CC(=O)c1c(OCCN2CCN(c3cccc(F)c3)CC2)ccc2c(C)cc(=O)oc12 98900
Cc1cc(OCCCCCN2CCN(c3cccc(F)c3)CC2)c2c(C)cc(=O)oc2c1 24300
COc1cccc(N2CCN(CCCCCOc3ccc4c(C)cc(=O)oc4c3C(C)=O)CC2)c1 22900
COc1ccccc1N1CCN(CCCCCOc2c(C(C)=O)c(C)cc3oc(=O)cc(C)c23)CC1 39.4
COc1cccc(N2CCN(CCCCCOc3cc(C)cc4oc(=O)cc(C)c34)CC2)c1 1700

*Q* State the recorded EC50 for this entry: COc1ccccc1N1CCN(CCOc2ccc3c(C)cc(=O)oc3c2C(C)=O)CC1
*A* 2740

*Q* Note, next up: CC(=O)c1c(C)cc2oc(=O)cc(C)c2c1OCCN1CCN(c2cccc(Cl)c2Cl)CC1
*A* 3100

*Q* Note, next up: CC(=O)c1c(OCCCCCN2CCN(c3cccc(Br)c3)CC2)ccc2c(C)cc(=O)oc12
*A* 21500

Recorded values, source paper PMC7996328.
